measurement_protocol: Metabolic stability in human hepatic microsome
Format: in vitro ADME
condition_set: microsomes, pH 7.4; human hepatic microsome, NADPH(+); read-out: CL NADPH(+)
Starred links: 1 amine or outer side, 2 acyl side, 3 side chain; linkers in the order of their positions; H or OH if unused. Positions of bridges follow the written chain, without caps; N, C: chain ends. Non-standard residues stand in square brackets, D forms with d. Residues, ends and D or L forms follow the SMILES beside them. *: point of attachment. Phe(4-(CH2)5CO) = O=C([C@H](Cc1ccc(CCCCCC(=O)[*:3])cc1)N[*:1])[*:2]; NMeF = CN[C@@H](Cc1ccccc1)C(=O)O; NMeGABA = CN(CCCC(=O)[*:2])[*:1]; NMeL = CN[C@@H](CC(C)C)C(=O)O; NMeV = CN[C@H](C(=O)O)C(C)C; NMeA = CN[C@@H](C)C(=O)O; Piperidide = C1CCN(*)CC1; tBu = CC(C)(C)*
Reported microsomal CLint at 1 uM values follow for various molecules
quantity_name: microsomal CLint at 1 uM (µL/min/mg)

molecule="CC(C)C[C@H]1C(=O)N(C)[C@@H](CC(C)C)C(=O)N[C@H](C(=O)N2CCCCC2)CC(=O)N(C)CCCC(=O)N(C)[C@@H](Cc2ccccc2)C(=O)N[C@@H]([C@@H](C)O)C(=O)N(C)[C@@H](CC(C)C)C(=O)N[C@@H](COC(C)(C)C)C(=O)N1C [DP-686] ([NMeGABA][NMeF]T[NMeL]S(tBu)[NMeL][NMeL]D-Piperidide; lactam N-8)" quantity_name="microsomal CLint at 1 uM" uom=µL/min/mg test_result=227
molecule="CC(C)C[C@H]1C(=O)N(C)[C@@H](C(C)C)C(=O)N[C@@H](Cc2ccccc2)C(=O)N[C@H](C(=O)N(C)[C@@H](Cc2ccccc2)C(=O)N(C)[C@@H](Cc2ccccc2)C(=O)N[C@@H](C)C(=O)N2CCCCC2)CC(=O)N[C@H](C)C(=O)N[C@@H](C(C)C)C(=O)N(C)[C@@H](CC(C)C)C(=O)N[C@@H]([C@@H](C)O)C(=O)N(C)[C@@H](Cc2ccccc2)C(=O)NCC(=O)N1C [DP-501] ([dA]V[NMeL]T[NMeF]G[NMeL][NMeV]FD[NMeF][NMeF]A-Piperidide; lactam N-10)" quantity_name="microsomal CLint at 1 uM" uom=µL/min/mg test_result=7
molecule="CC[C@H](C)[C@@H]1NC(=O)[C@H](C)N(C)C(=O)CCCCCc2ccc(cc2)C[C@@H](C(=O)N2CCCCC2)NC(=O)[C@H](CC(C)C)N(C)C(=O)[C@H](CC(C)C)N(C)C(=O)[C@H](C)N(C)C(=O)[C@H]([C@@H](C)O)NC(=O)[C@H](Cc2ccccc2)N(C)C(=O)[C@H](Cc2ccccc2)N(C)C1=O [DP-841] ([NMeA]I[NMeF][NMeF]T[NMeA][NMeL][NMeL][Phe(4-(CH2)5CO)]-Piperidide; lactam N-9)" quantity_name="microsomal CLint at 1 uM" uom=µL/min/mg test_result=386

###

measurement_protocol: Metabolic stability in human hepatic microsome
Assay type: in vitro ADME
condition_set: microsomes, pH 7.4; human hepatic microsome, NADPH(+); read-out: CL NADPH(+)
Starred links: 1 amine or outer side, 2 acyl side, 3 side chain; linkers in the order of their positions; H or OH if unused. Positions of bridges follow the written chain, without caps; N, C: chain ends. Non-standard residues stand in square brackets, D forms with d. Residues, ends and D or L forms follow the SMILES beside them. *: point of attachment. NMeF = CN[C@@H](Cc1ccccc1)C(=O)O; NMeGABA = CN(CCCC(=O)[*:2])[*:1]; NMeL = CN[C@@H](CC(C)C)C(=O)O; NMeA = CN[C@@H](C)C(=O)O; Piperidide = C1CCN(*)CC1; β3hA = C[C@H](N)CC(=O)O; Sar = CNCC(=O)O; tBu = CC(C)(C)*
Note to self: values exactly at 90 µL/min/mg are condition met. So microsomal CLint at 1 uM at or above 90 µL/min/mg is condition met, below is condition not met.

molecule="CC(C)C[C@H](NC(=O)[C@H](Cc1ccccc1)N(C)C(=O)[C@@H]1CC(=O)N[C@H](C)C(=O)N[C@@H](C(C)C)C(=O)N(C)[C@@H](Cc2ccccc2)C(=O)N(C)[C@@H](CC(C)C)C(=O)N(C)[C@@H](C)C(=O)N[C@@H]([C@@H](C)O)C(=O)N[C@@H](Cc2ccccc2)C(=O)N1)C(=O)N[C@@H](C)C(=O)N1CCCCC1 [DP-658] ([dA]V[NMeF][NMeL][NMeA]TFD[NMeF]LA-Piperidide; lactam N-8)" assigned_label="condition not met"
molecule="CC[C@H](C)[C@@H]1NC(=O)[C@H](Cc2ccccc2)N(C)C(=O)[C@@H](C)NC(=O)C[C@@H](C(=O)N(C)[C@@H](Cc2ccccc2)C(=O)N(C)[C@@H](Cc2ccccc2)C(=O)N[C@@H](C)C(=O)N2CCCCC2)NC(=O)[C@H](C(C)C)NC(=O)CN(C)C(=O)[C@H]([C@@H](C)O)NC1=O [DP-569] ([dA][NMeF]IT[Sar]VD[NMeF][NMeF]A-Piperidide; lactam N-7)" assigned_label="condition met"
molecule="CC(C)C[C@H]1C(=O)N[C@H](C(=O)N(C)[C@@H](Cc2ccccc2)C(=O)N[C@@H](C)C(=O)N2CCCCC2)CC(=O)N(C)[C@@H](C)C(=O)N[C@@H]([C@@H](C)O)C(=O)N(C)[C@@H](C)C(=O)N(C)[C@@H](CC(C)C)C(=O)N[C@@H](C(C)C)C(=O)N(C)[C@@H](Cc2ccccc2)C(=O)N[C@@H](Cc2ccccc2)C(=O)N1C [DP-386] ([NMeA]T[NMeA][NMeL]V[NMeF]F[NMeL]D[NMeF]A-Piperidide; lactam N-9)" assigned_label="condition met"
molecule="CC(C)C[C@H]1C(=O)N[C@@H](COC(C)(C)C)C(=O)N[C@@H](C)CC(=O)N[C@H](C)C(=O)N(C)[C@@H](C)C(=O)N(C)[C@@H](Cc2ccccc2)C(=O)N(C)[C@@H](CC(C)C)C(=O)N[C@@H]([C@@H](C)O)C(=O)N(C)[C@@H](C)C(=O)N1C [DP-787] (cyclo([NMeA][NMeF][NMeL]T[NMeA][NMeL]S(tBu)[β3hA][dA]))" assigned_label="condition not met"
molecule="CC(C)C[C@H]1C(=O)N(C)[C@@H](Cc2ccccc2)C(=O)N[C@H](C(=O)N2CCCCC2)CC(=O)N(C)CCCC(=O)N(C)[C@@H](C)C(=O)N(C)[C@@H](CC(C)C)C(=O)N[C@@H]([C@@H](C)O)C(=O)N(C)CC(=O)N1C [DP-712] ([NMeGABA][NMeA][NMeL]T[Sar][NMeL][NMeF]D-Piperidide; lactam N-8)" assigned_label="condition not met"

###

measurement_protocol: Mouse PK test of peptides (intravenous and oral administration)
condition_set: male, C57BL/6J, in vivo, iv, 20 mg/kg
Positions of bridges follow the written chain, without caps; N, C: chain ends. Non-standard residues stand in square brackets, D forms with d. Residues, ends and D or L forms follow the SMILES beside them. *: point of attachment. NMeF = CN[C@@H](Cc1ccccc1)C(=O)O; NMeI = CC[C@H](C)[C@H](NC)C(=O)O; NMeL = CN[C@@H](CC(C)C)C(=O)O; NMeA = CN[C@@H](C)C(=O)O; Piperidide = C1CCN(*)CC1; NPrGly = CCCNCC(=O)O; Sar = CNCC(=O)O; tBu = CC(C)(C)*
quantity_name: C0 (ng/mL)

compound="CC[C@H](C)[C@H](NC(=O)[C@@H]1CCCN1C(=O)[C@@H]1CC(=O)N[C@@H](C)C(=O)N[C@@H](CC(C)C)C(=O)N(C)[C@@H]([C@@H](C)CC)C(=O)N[C@@H](C(C)C)C(=O)N(C)[C@@H](Cc2ccccc2)C(=O)N[C@@H](CC(C)C)C(=O)N(C)[C@@H](Cc2ccccc2)C(=O)N1)C(=O)N1CCCCC1 [DP-965] (AL[NMeI]V[NMeF]L[NMeF]DPI-Piperidide; lactam N-8)" test_result=171000
compound="CCCN1CC(=O)N(C)[C@@H](CC(C)C)C(=O)N[C@@H]([C@@H](C)O)C(=O)N(C)[C@@H](C)C(=O)N(C)[C@@H](CC(C)C)C(=O)N(C)[C@@H]([C@@H](C)CC)C(=O)N[C@@H](COC(C)(C)C)C(=O)N[C@H](C(=O)N2CCCCC2)CC(=O)N(C)[C@@H](C)C(=O)N(C)[C@@H](Cc2ccccc2)C1=O [DP-540] ([NMeA][NMeF][NPrGly][NMeL]T[NMeA][NMeL][NMeI]S(tBu)D-Piperidide; lactam N-10)" test_result=48100
compound="CC(C)C[C@@H]1NC(=O)[C@H](Cc2ccccc2)N(C)C(=O)[C@H](Cc2ccccc2)N(C)C(=O)[C@H](CC(C)C)NC(=O)[C@H](C)N(C)C(=O)[C@H]([C@@H](C)O)NC(=O)[C@H](C)N(C)C(=O)C[C@@H](C(=O)N2CCCCC2)NC(=O)[C@H](CC(C)C)N(C)C1=O [DP-125] ([NMeA]T[NMeA]L[NMeF][NMeF]L[NMeL]D-Piperidide; lactam N-9)" test_result=46400
compound="CC[C@H](C)[C@H]1C(=O)N[C@H](C(=O)N2CCCCC2)CC(=O)N[C@H](C(C)C)C(=O)N(C)[C@@H](Cc2ccccc2)C(=O)N(C)[C@@H](CC(C)C)C(=O)N[C@@H]([C@@H](C)O)C(=O)N(C)CC(=O)N(C)[C@@H](CC(C)C)C(=O)N[C@@H](COC(C)(C)C)C(=O)N1C [DP-265] ([dV][NMeF][NMeL]T[Sar][NMeL]S(tBu)[NMeI]D-Piperidide; lactam N-9)" test_result=58300
compound="CCCN1CC(=O)N(C)[C@@H](CC(C)C)C(=O)N[C@@H](COC(C)(C)C)C(=O)N(C)[C@@H](CC(C)C)C(=O)N[C@H](C(=O)N2CCCCC2)CC(=O)N[C@H](C)C(=O)N(C)[C@@H](C)C(=O)N(C)[C@@H](Cc2ccccc2)C(=O)N(C)[C@@H](CC(C)C)C(=O)N[C@@H]([C@@H](C)O)C1=O [DP-547] ([dA][NMeA][NMeF][NMeL]T[NPrGly][NMeL]S(tBu)[NMeL]D-Piperidide; lactam N-10)" test_result=44500
